Biological target: Sterol O-acyltransferase 1 (Oryctolagus cuniculus)
Test: In vitro inhibition of rabbit intestinal acyl coenzyme A:cholesterol acyltransferase using [1-14C]oleolyl-CoA
pIC50: −log10 of the molar value.
measured metric: pIC50

compound="CC(C)c1cccc(C(C)C)c1NC(=O)NCC(CN(C)Cc1ccccc1)c1ccccc1 (centres undefined)" measured_metric=pIC50 modifier_sign=< assay_value=5.00
compound="CCCCCCCCCCCCNCC(CNC(=O)Nc1c(C(C)C)cccc1C(C)C)c1ccccc1 (racemic)" measured_metric=pIC50 modifier_sign== assay_value=6.96
compound="CCOC(=O)N1CCN(CCCCCC(=O)NC(CNC(=O)Nc2c(C(C)C)cccc2C(C)C)c2ccccc2)CC1 (centres undefined)" measured_metric=pIC50 modifier_sign== assay_value=5.55
compound="CCCCC(=O)NC(CNC(=O)Nc1c(C(C)C)cccc1C(C)C)c1ccccc1 (centres undefined)" measured_metric=pIC50 modifier_sign== assay_value=6.37

---

Target: Sterol O-acyltransferase 1 (Oryctolagus cuniculus)
Test: In vitro inhibition of rabbit intestinal acyl coenzyme A:cholesterol acyltransferase using [1-14C]oleolyl-CoA
Flag rule - IC50 less than 50 nM flags true (1); the remaining entries get false (0).

compound="CCCCCCC(=O)NC(COC(=O)Nc1c(C(C)C)cccc1C(C)C)c1ccccc1 (single isomer, unassigned; (+))" group="false (0)"
compound="CCCCCCCCCC(=O)NC(CNC(=O)Nc1c(C(C)C)cccc1C(C)C)c1ccccc1 (stereo not drawn)" group="false (0)"
compound="CCCCCCC(=O)NC(CNC(=O)Nc1c(C(C)C)cccc1C(C)C)c1ccccc1 (stereo not drawn)" group="false (0)"
compound="CC(C)c1cccc(C(C)C)c1NC(=O)NCC(NCC1CC1)c1ccccc1 (single isomer, unassigned; (-))" group="false (0)"
compound="CC(C)c1cccc(C(C)C)c1NC(=O)NCC(NCc1ccco1)c1ccccc1 (single isomer, unassigned; (+))" group="false (0)"
compound=CC(C)c1cccc(C(C)C)c1NC(=O)NCC1(c2ccccc2)CCCC1 group="true (1)"

---

System: Rattus norvegicus
Experiment: The compound at a dose of 50 mg/kg is evaluated for percent change in Non-High Density Lipoprotein level in chronic cholesterol fed rat screen
Assay type: functional
measured metric: Change (%)

compound="CC(C)c1cccc(C(C)C)c1NC(=O)NCC(NC(=O)c1cccc[n+]1[O-])c1ccccc1 (centres undefined)" measured_target="Rattus norvegicus" measured_metric=Change unit_name=% assay_value=-31
compound="CC(C)c1cccc(C(C)C)c1NC(=O)NCC1(c2ccc(N(C)C)cc2)CCCC1 [NEVANIMIBE]" measured_target="Rattus norvegicus" measured_metric=Change unit_name=% assay_value=-62
compound="CCCCCCCCCCCCNC(CNC(=O)Nc1c(C(C)C)cccc1C(C)C)c1ccccc1 (racemic)" measured_target="Rattus norvegicus" measured_metric=Change unit_name=% assay_value=27
compound=CC(C)c1cccc(C(C)C)c1NC(=O)NCC1(c2ccccc2)CCCC1 measured_target="Rattus norvegicus" measured_metric=Change unit_name=% assay_value=-7

---

Entries and their measured IC50 follow.
Molecular target: Sterol O-acyltransferase 1 (Oryctolagus cuniculus)
Test: In vitro inhibition of rabbit intestinal acyl coenzyme A:cholesterol acyltransferase using [1-14C]oleolyl-CoA
measured metric: IC50 (µM)

compound="CC(C)c1cccc(C(C)C)c1NC(=O)NCC(NC(=O)c1c(Cl)cccc1Cl)c1ccccc1 (centres undefined)" measured_target="Sterol O-acyltransferase 1 (Oryctolagus cuniculus)" unit_name=µM assay_value=1.2
compound="CC(C)c1cccc(C(C)C)c1NC(=O)NCC(NCc1ccc(N(C)C)cc1)c1ccccc1 (single isomer, unassigned; (-))" measured_target="Sterol O-acyltransferase 1 (Oryctolagus cuniculus)" unit_name=µM assay_value=0.15
compound="CCCCCCC(=O)NCC(CNC(=O)Nc1c(C(C)C)cccc1C(C)C)c1ccccc1 (centres undefined)" measured_target="Sterol O-acyltransferase 1 (Oryctolagus cuniculus)" unit_name=µM assay_value=0.65
compound="CCCCCCCCCCCC(=O)NCC(CNC(=O)Nc1c(C(C)C)cccc1C(C)C)c1ccccc1 (centres undefined)" measured_target="Sterol O-acyltransferase 1 (Oryctolagus cuniculus)" unit_name=µM assay_value=0.079

---

Target: Sterol O-acyltransferase 1 (Oryctolagus cuniculus)
Assay: In vitro inhibition of rabbit intestinal acyl coenzyme A:cholesterol acyltransferase using [1-14C]oleolyl-CoA
measured metric: log10 of IC50 (log10 of the value in nM)

compound="CCCCCCCCCCCCCCCCNC(CNC(=O)Nc1c(C(C)C)cccc1C(C)C)c1ccccc1 (racemic)" assay_value=2.08
compound="CC(C)c1cccc(C(C)C)c1NC(=O)NCC(NC(=O)c1ccc(C(F)(F)F)cc1)c1ccccc1 (centres undefined)" assay_value=2.71
compound="CC(C)c1cccc(C(C)C)c1NC(=O)NCC(CNC(=O)c1ccccn1)c1ccccc1 (centres undefined)" assay_value=2.48
compound="CC(C)c1cccc(C(C)C)c1NC(=O)NC(CNC(=O)c1ccccc1)c1ccccc1 (centres undefined)" assay_value=3.56
compound=CCCC(CCC)(CNC(=O)Nc1c(C(C)C)cccc1C(C)C)NC(=O)c1ccc(OC)cc1 assay_value=1.95
compound="COc1ccc(C(=O)NC(C)(CNC(=O)Nc2c(C(C)C)cccc2C(C)C)c2ccccn2)cc1 (racemic)" assay_value=2.79
compound="CCCCCCCCCCCC(=O)NC(CNC(=O)Nc1c(C(C)C)cccc1C(C)C)c1ccccc1 (centres undefined)" assay_value=1.89
compound="CC(C)c1cccc(C(C)C)c1NC(=O)NCC(NC(=O)c1cc2ccccc2[nH]1)c1ccccc1 (centres undefined)" assay_value=3.36
compound="COCCCCCC(=O)NC(CNC(=O)Nc1c(C(C)C)cccc1C(C)C)c1ccccc1 (centres undefined)" assay_value=2.58

---

Target: Sterol O-acyltransferase 1 (Oryctolagus cuniculus)
Assay: In vitro inhibition of rabbit intestinal acyl coenzyme A:cholesterol acyltransferase using [1-14C]oleolyl-CoA
Quick list: IC50 per entry.
measured metric: IC50 (nM)

compound="COC(=O)CCCCC(=O)NC(CNC(=O)Nc1c(C(C)C)cccc1C(C)C)c1ccccc1 (stereo not given)" measured_target="Sterol O-acyltransferase 1 (Oryctolagus cuniculus)" measured_metric=IC50 assay_value=2600
compound="CCCCCCCNC(CNC(=O)Nc1c(C(C)C)cccc1C(C)C)c1ccccc1 (racemic)" measured_target="Sterol O-acyltransferase 1 (Oryctolagus cuniculus)" measured_metric=IC50 assay_value=110
compound=COc1ccc(C(=O)NC2(CNC(=O)Nc3c(C(C)C)cccc3C(C)C)CCCC2)cc1 measured_target="Sterol O-acyltransferase 1 (Oryctolagus cuniculus)" measured_metric=IC50 assay_value=500
compound="CC(C)c1cccc(C(C)C)c1NC(=O)NCC(NC(=O)CCCCCN(C)C)c1ccccc1 (stereo not given)" measured_target="Sterol O-acyltransferase 1 (Oryctolagus cuniculus)" measured_metric=IC50 assay_value=4200
compound="CC(C)c1cccc(C(C)C)c1NC(=O)NCC(NC(=O)c1ccco1)c1ccccc1 (stereo not given)" measured_target="Sterol O-acyltransferase 1 (Oryctolagus cuniculus)" measured_metric=IC50 assay_value=440

---

Target: Sterol O-acyltransferase 1 (Oryctolagus cuniculus)
Test: In vitro inhibition of rabbit intestinal acyl coenzyme A:cholesterol acyltransferase using [1-14C]oleolyl-CoA
pIC50: −log10 of the molar value.
measured metric: pIC50

compound="CC(C)c1cccc(C(C)C)c1NC(=O)OCC(NC(=O)OC(C)(C)C)c1ccccc1 (configuration not stated)" assay_value=5.60
compound="CC(C)c1cccc(C(C)C)c1NC(=O)NCC(NC(=O)c1cccc2ccccc12)c1ccccc1 (configuration not stated)" assay_value=6.01
compound="CC(C)c1cccc(C(C)C)c1NC(=O)NCC(CN(Cc1ccccc1)Cc1ccccc1)c1ccccc1 (configuration not stated)" assay_value=5.12
compound="COc1ccc(CNC(CNC(=O)Nc2c(C(C)C)cccc2C(C)C)CC(C)C)cc1 (configuration not stated)" assay_value=7.30
compound="COc1ccccc1CNC(CNC(=O)Nc1c(C(C)C)cccc1C(C)C)c1ccccc1 (single isomer, unassigned; (-))" assay_value=7.35
compound="CC(C)c1cccc(C(C)C)c1NC(=O)NCC(NCc1cccs1)c1ccccc1 (single isomer, unassigned; (+))" assay_value=7.29
compound="CCCCC(=O)NCC(CNC(=O)Nc1c(C(C)C)cccc1C(C)C)c1ccccc1 (configuration not stated)" assay_value=6.21
compound="CC(C)c1cccc(C(C)C)c1NC(=O)NCC(NC(=O)c1ccc2ccccc2[n+]1[O-])c1ccccc1 (configuration not stated)" assay_value=6.82
compound="CCCCCCCCCCCCCCCC(=O)NC(CNC(=O)Nc1c(C(C)C)cccc1C(C)C)c1ccccc1 (configuration not stated)" assay_value=7.09
compound="CC(C)c1cccc(C(C)C)c1NC(=O)NCC(NC(=O)c1ccccn1)c1ccccc1 (configuration not stated)" assay_value=7.10
compound="CC(C)c1cccc(C(C)C)c1NC(=O)NCC(NCc1ccccc1O)c1ccccc1 (single isomer, unassigned; (-))" assay_value=6.92
compound="CCCCCCCCCCCCCCCCCCNC(CNC(=O)Nc1c(C(C)C)cccc1C(C)C)c1ccccc1 (racemic)" assay_value=6.64
compound="CC(C)c1cccc(C(C)C)c1NC(=O)NCC(NC(=O)c1cccc[n+]1[O-])c1ccccc1 (configuration not stated)" assay_value=6.89
compound="COc1ccc(CNC(CNC(=O)Nc2c(C(C)C)cccc2C(C)C)c2ccccc2)cc1 (stereo in doubt; 9m(+))" assay_value=7.15
compound="COc1ccc(CNC(CNC(=O)Nc2c(C(C)C)cccc2C(C)C)c2ccccc2)cc1 (racemic)" assay_value=7.32
compound="CC(C)c1cccc(C(C)C)c1NC(=O)NCC(NCc1cccc([N+](=O)[O-])c1)c1ccccc1 (single isomer, unassigned; (-))" assay_value=7.35
compound="COc1ccc(CNC(CCSC)CNC(=O)Nc2c(C(C)C)cccc2C(C)C)cc1 (single isomer, unassigned; (+))" assay_value=6.31
